# Test system: NCI-H226 cells
# test-protocol: NCI-H226 proliferation assay (Wuxi AppTec)
# Assay type: cell-based
# applied-conditions: Homo sapiens, 168 h, 7 days, CellTiter-Glo, top dose 10, 3-fold dilution, 9 doses
readout-type: log10(IC50) (log10 of the value in µM)

> print(dat)
                                    compound  subject.of.test  observed.measurement
 1  C=CC(=O)N1CCN(c2nccnc2Nc2ccc(OC(F)(F)F)cc2)CC1   NCI-H226 cells                 -2.22
 2  C=CC(=O)N1CCN(c2ccnnc2Nc2ccc(C(F)(F)F)cc2)CC1   NCI-H226 cells                 -1.38
 3  C=CC(=O)N1CCC(c2cncnc2Oc2ccc(C(F)(F)F)nc2)CC1   NCI-H226 cells                 -0.47
 4  C=CC(=O)N1CCN(c2nccnc2N2CC3(CC(C(F)(F)F)C3)C2)CC1   NCI-H226 cells                 -1.34
 5  C=CC(=O)N1CC=C(c2nccnc2Nc2ccc(OC(F)(F)F)nc2)CC1   NCI-H226 cells                 -1.44
 6  C=CC(=O)N1CCN(c2nccnc2Oc2ccc(OC(F)(F)F)cc2)CC1   NCI-H226 cells                 -1.96
 7  C=C(F)C(=O)N1CC(Nc2nccnc2Nc2ccc(C(F)(F)F)nc2)C1   NCI-H226 cells                  0.23
 8  C=CC(=O)N1CCN(c2ccnnc2Nc2ccc(C(F)(F)F)nc2)CC1   NCI-H226 cells                  0.15
 9  C=CC(=O)N1CCN(c2nccnc2Nc2ccc(C(F)(F)F)cn2)CC1   NCI-H226 cells                 -1.82
10  C=C(F)C(=O)N1CCN(c2nccnc2Nc2ccc(C(F)(F)F)nc2)CC1   NCI-H226 cells                 -0.34
11  C=CC(=O)N1CCN(c2nccnc2N2CC(c3ccc(F)cc3)C2)CC1   NCI-H226 cells                 -1.31
12  C=CC(=O)N1CCN(c2nccnc2Nc2ccc(C(F)(F)F)c(OC)c2)CC1   NCI-H226 cells                 -1.11
13  C=CC(=O)N1CC=C(c2cccnc2Nc2ccc(C(F)(F)F)nc2)CC1   NCI-H226 cells                 -1.77
14  C=CC(=O)N1CCN(c2nccnc2NC2C3CC2C3C(F)(F)F)CC1 (stereo not drawn)   NCI-H226 cells                  0.16
15  C=CC(=O)N1CCN(c2ccnnc2Nc2ccc(C(F)(F)F)cn2)CC1   NCI-H226 cells                 -0.69
16  C=CC(=O)N1CCN(c2nccnc2Nc2ccc(C(F)(F)F)cc2)CC1   NCI-H226 cells                 -1.84
17  C=CC(=O)N1CCN(c2nccnc2C(=O)c2ccc(C(F)(F)F)nc2)CC1   NCI-H226 cells                 -1.05
18  C=C(F)C(=O)N1CC=C(c2cccnc2Oc2ccc(C(F)(F)F)nc2)CC1   NCI-H226 cells                 -1.70
